assay: NCI Yeast Anticancer Drug Screen. Data for the mec2-1 strain (AID 157); settings: S. cerevisiae mec2-1 strain, at 5.0 µM (retest, dose inferred, filed as 0.5), stronger effect = higher value
This is part of a sample that, as a whole, favours compounds with a hit. Of some 79,000 tested, about 15% had one in any assay.
The label depends only on growth inhibition: met if it is at least 20%, not met if it is smaller.

CC1(C)CCC[C@]2(C)[C@@H](C=O)C(C=O)=CC[C@@H]12 = met
Cc1cc(O)c(O)c(C(C)(C)CC(C)(C)C)c1 = met
Cc1cc(C)c(C#N)c(Sc2nc(C)c([N+](=O)[O-])c(C)c2C#N)n1 = met
c1ccc(-c2cccc(-c3ccccn3)n2)nc1 = met
CC1(C)CCC2(C(=O)O)C(O)CC3(C)C(=CCC4C5(C)CCC(OC6OCC(O)C(O)C6OC6OCC(O)C(O)C6OC6OCC(O)C(OC7OC(CO)C(O)C(O)C7O)C6O)C(C)(C)C5CCC43C)C2C1 (centres undefined) = not met
Cc1ccccc1OCc1cccc(Cl)c1 = not met
COc1cc(-c2ccc(-[n+]3nc(-c4ccc([N+](=O)[O-])cc4)nn3-c3ccc([N+](=O)[O-])cc3)c(OC)c2)ccc1-[n+]1nc(-c2ccc([N+](=O)[O-])cc2)nn1-c1ccc([N+](=O)[O-])cc1 = met
COc1cc(N(CCC#N)CCC#N)ccc1/C(N=Nc1ccc([N+](=O)[O-])cc1)=N/NC(=O)c1cc(Br)ccc1O = not met

Note: attention shifts to another entry.
For this compound, is measured growth inhibition 20% or higher? O=[N+]([O-])C=C(c1ccccc1)c1ccccc1
not met
